For each record, write down the corresponding kcat/Km.
substrate: [H][C@]12SCC(COC(C)=O)=C(C(=O)O)N1C(=O)[C@H]2NC(=O)CCC[C@@H](N)C(=O)O; experiment: CPC consumption by HPLC, initial rates; type: biochemical, Trigonopsis variabilis; details: 0.1 M potassium phosphate pH 8.0, 30 °C, air saturated
Answers are plain numbers, in M⁻¹ s⁻¹.

Recorded results for 3 proteins are shown here.
q: Dear colleague, I am looking for the recorded kcat/Km of the following protein: TvDAAO (Trigonopsis variabilis; C108F/C298G/E32R/F33D/F54S/M156L) (protein, FAD-containing; no tag mentioned) MAKIVVIGAGVAGLTTALQLLRKGHEVTIVSRDTPGDLSIGYTSPWAGANWLTSYDGGKLADYDAVSYPILRELARSSPEAGIRLISQRSHVLKRDLPKLEVAMSAIFQRNPWFKNTVDSFEIIEDRSRIVHDDVAYLVEFRSVCIHTGVYLNWLLSQCLSLGATVVKRRVNHIKDANLLHSSGSRPDVIVNCSGLFARFLGGVEDKKMYPIRGQVVLVRNSLPFMASFSSTPEKENEDEALYIMTRFDGTSIIGGCFQPNNWSSEPDPSLTHRILSRALDRFPELTKDGPLDIVREGVGHRPGREGGPRVELEKIPGVGFVVHNYGAAGAGYQSSYGMADEAVSYVERALTRPNL
a: 79000

q: Name the recorded kcat/Km for TvDAAO (Trigonopsis variabilis; C108F/E32R/F33D/F54S/M156L) (protein, FAD-containing; no tag mentioned) MAKIVVIGAGVAGLTTALQLLRKGHEVTIVSRDTPGDLSIGYTSPWAGANWLTSYDGGKLADYDAVSYPILRELARSSPEAGIRLISQRSHVLKRDLPKLEVAMSAIFQRNPWFKNTVDSFEIIEDRSRIVHDDVAYLVEFRSVCIHTGVYLNWLLSQCLSLGATVVKRRVNHIKDANLLHSSGSRPDVIVNCSGLFARFLGGVEDKKMYPIRGQVVLVRNSLPFMASFSSTPEKENEDEALYIMTRFDGTSIIGGCFQPNNWSSEPDPSLTHRILSRALDRFPELTKDGPLDIVRECVGHRPGREGGPRVELEKIPGVGFVVHNYGAAGAGYQSSYGMADEAVSYVERALTRPNL .
a: 66000

q: // query kcat/Km value for entry TvDAAO (Trigonopsis variabilis) (protein, FAD-containing; no tag mentioned) MAKIVVIGAGVAGLTTALQLLRKGHEVTIVSEFTPGDLSIGYTSPWAGANWLTFYDGGKLADYDAVSYPILRELARSSPEAGIRLISQRSHVLKRDLPKLEVAMSAICQRNPWFKNTVDSFEIIEDRSRIVHDDVAYLVEFRSVCIHTGVYLNWLMSQCLSLGATVVKRRVNHIKDANLLHSSGSRPDVIVNCSGLFARFLGGVEDKKMYPIRGQVVLVRNSLPFMASFSSTPEKENEDEALYIMTRFDGTSIIGGCFQPNNWSSEPDPSLTHRILSRALDRFPELTKDGPLDIVRECVGHRPGREGGPRVELEKIPGVGFVVHNYGAAGAGYQSSYGMADEAVSYVERALTRPNL
a: 18000

Attention now turns to another entry.
q: Quick one: kcat/Km for TvDAAO (Trigonopsis variabilis; C108F/E32R/F33D) (protein, FAD-containing; no tag mentioned) MAKIVVIGAGVAGLTTALQLLRKGHEVTIVSRDTPGDLSIGYTSPWAGANWLTFYDGGKLADYDAVSYPILRELARSSPEAGIRLISQRSHVLKRDLPKLEVAMSAIFQRNPWFKNTVDSFEIIEDRSRIVHDDVAYLVEFRSVCIHTGVYLNWLMSQCLSLGATVVKRRVNHIKDANLLHSSGSRPDVIVNCSGLFARFLGGVEDKKMYPIRGQVVLVRNSLPFMASFSSTPEKENEDEALYIMTRFDGTSIIGGCFQPNNWSSEPDPSLTHRILSRALDRFPELTKDGPLDIVRECVGHRPGREGGPRVELEKIPGVGFVVHNYGAAGAGYQSSYGMADEAVSYVERALTRPNL ?
a: 22000
